# experiment-notes: Cytotoxicity by LDH release (CyQUANT LDH Cytotoxicity Assay)
# Assay type: cell-based
# recorded-conditions: human; HCE-2, 4 μM, 45 min contact, measured at 48 h; read-out: cytotoxicity (% of dead cells, LDH)
readout-type: cytotoxicity at 48 h, 4 µM (%)
Form entry: value (%) — number only.

Ask: Using the record for CC(=O)OCOC(=O)CN(CC(=O)OCOC(C)=O)Cc1c(OC(C)=O)ccc2c1Oc1c(ccc(OC(C)=O)c1CN(CC(=O)OCOC(C)=O)CC(=O)OCOC(C)=O)C21OC(=O)c2ccccc21 , report its cytotoxicity at 48 h, 4 µM.
Reply: 18.8
